Molecular target: T1, full-length beta-Catenin (Uniprot ID P35222) (Homo sapiens (Human), UniProt P35222 1-781)
T1 construct: also called bCat
T1 sequence: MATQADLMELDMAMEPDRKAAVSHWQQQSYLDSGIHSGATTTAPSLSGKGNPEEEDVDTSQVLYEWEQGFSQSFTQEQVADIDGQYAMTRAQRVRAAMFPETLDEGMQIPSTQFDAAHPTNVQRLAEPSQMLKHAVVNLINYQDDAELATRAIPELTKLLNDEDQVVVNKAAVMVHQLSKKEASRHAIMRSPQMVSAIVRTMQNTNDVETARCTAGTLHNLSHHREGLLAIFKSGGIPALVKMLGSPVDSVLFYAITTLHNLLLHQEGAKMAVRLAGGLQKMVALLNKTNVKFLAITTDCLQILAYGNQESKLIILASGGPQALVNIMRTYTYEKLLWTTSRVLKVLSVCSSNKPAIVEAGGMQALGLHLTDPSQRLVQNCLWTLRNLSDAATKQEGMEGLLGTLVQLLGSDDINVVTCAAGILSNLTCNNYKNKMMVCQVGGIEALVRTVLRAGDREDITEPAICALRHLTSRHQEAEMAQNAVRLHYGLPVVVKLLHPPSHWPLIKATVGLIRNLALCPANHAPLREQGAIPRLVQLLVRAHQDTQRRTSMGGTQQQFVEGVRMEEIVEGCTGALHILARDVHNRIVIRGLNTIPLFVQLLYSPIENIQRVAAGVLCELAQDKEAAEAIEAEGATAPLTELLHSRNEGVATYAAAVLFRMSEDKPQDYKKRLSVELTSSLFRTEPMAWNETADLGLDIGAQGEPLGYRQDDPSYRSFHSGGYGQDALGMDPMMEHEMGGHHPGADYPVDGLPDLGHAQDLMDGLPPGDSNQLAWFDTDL
Test: fluorescence polarization competition; full-length beta-catenin; competitor 5FAM-TCF4(10-53) probe
Starred links: 1 amine or outer side, 2 acyl side, 3 side chain; linkers in the order of their positions; H or OH if unused. Positions of bridges follow the written chain, without caps; N, C: chain ends. Non-standard residues stand in square brackets, D forms with d. Primed or numbered codes have the meaning given here. PyrS2″ = (S)-3-amino-1-((pent-4-en-1-yloxy)carbonyl)pyrrolidine-3-carboxylic acid (stapling residue), C=CCCCOC(=O)N1CC[C@@](N[*:1])(C(=O)[*:2])C1; B5(16) = 2-amino-2-(pent-4-en-1-yl)hept-6-enoic acid = 2,2-bis(4-pentenyl)glycine (stitching residue), C=CCCCC(CCCC=C)(N[*:1])C(=O)[*:2]; B5(4) = 2,2-bis(4-pentenyl)glycine = 2-amino-2-(pent-4-en-1-yl)hept-6-enoic acid (stitching residue), C=CCCCC(CCCC=C)(N[*:1])C(=O)[*:2]; Phe(2-Cl) = N[C@@H](Cc1ccccc1Cl)C(=O)O; Bta = N[C@@H](Cc1csc2ccccc12)C(=O)O; αAllylPro = C=CC[C@@]1(C(=O)O)CCCN1
Parameter Measured: pEC50
Just the number, please; pEC50 means minus log10 of the concentration in mol/L.

What measured pEC50 goes with Ac-[αAllylPro]DF[B5(4)]DDLLFT[PyrS2″][Phe(2-Cl)][Bta]S-NH2 (staple 1-4, 4-11, stapled peptide) [I-1158] ? 6.77

Same read-out for Ac-[αAllylPro]DF[B5(16)]DDALFS[PyrS2″][Phe(2-Cl)][Bta]Q-NH2 (staple 1-4, 4-11, stapled peptide) [I-1154] ? 7.35

Same read-out for Ac-[αAllylPro]DF[B5(16)]DDLAFT[PyrS2″][Phe(2-Cl)][Bta]S-NH2 (staple 1-4, 4-11, stapled peptide) [I-1156] ? 7.85

Same read-out for Ac-[αAllylPro]DF[B5(16)]DDLAFS[PyrS2″][Phe(2-Cl)][Bta]Q-NH2 (staple 1-4, 4-11, stapled peptide) [I-1153] ? 7.92

Same read-out for Ac-[αAllylPro]DF[B5(4)]DDALFT[PyrS2″][Phe(2-Cl)][Bta]S-NH2 (staple 1-4, 4-11, stapled peptide) [I-1157] ? 7.44

Reference source: patent US20240116985A1
